Hey, just so you know, these numbers are from patent US6872730B2.

system tested: human αvβ3 (Homo sapiens, UniProt P05106+P06756)
Sequence (P06756 31-889 limits assumed): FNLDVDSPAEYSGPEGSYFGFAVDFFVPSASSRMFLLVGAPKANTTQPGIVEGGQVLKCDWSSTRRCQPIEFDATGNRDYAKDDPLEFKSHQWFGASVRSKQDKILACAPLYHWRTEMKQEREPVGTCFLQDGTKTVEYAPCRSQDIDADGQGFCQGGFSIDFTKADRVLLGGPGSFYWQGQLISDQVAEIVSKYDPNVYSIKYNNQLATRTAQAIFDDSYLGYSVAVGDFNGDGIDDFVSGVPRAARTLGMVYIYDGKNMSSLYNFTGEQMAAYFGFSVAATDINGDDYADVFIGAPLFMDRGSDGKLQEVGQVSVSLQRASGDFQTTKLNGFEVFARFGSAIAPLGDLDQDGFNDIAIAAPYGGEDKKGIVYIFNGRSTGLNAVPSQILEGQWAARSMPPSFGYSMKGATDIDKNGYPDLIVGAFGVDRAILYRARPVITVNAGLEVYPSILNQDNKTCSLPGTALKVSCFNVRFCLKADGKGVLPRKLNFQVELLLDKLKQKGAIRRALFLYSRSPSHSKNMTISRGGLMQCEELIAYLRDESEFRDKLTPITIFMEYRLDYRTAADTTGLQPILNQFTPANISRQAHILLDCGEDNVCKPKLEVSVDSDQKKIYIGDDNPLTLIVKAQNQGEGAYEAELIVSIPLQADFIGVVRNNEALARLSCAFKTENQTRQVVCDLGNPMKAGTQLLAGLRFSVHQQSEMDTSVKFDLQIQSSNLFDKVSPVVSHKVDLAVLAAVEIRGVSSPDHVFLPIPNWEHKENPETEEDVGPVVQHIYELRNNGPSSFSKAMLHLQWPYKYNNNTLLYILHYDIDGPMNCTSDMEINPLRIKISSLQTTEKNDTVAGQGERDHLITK
Sequence (P06756 891-1048 partner limits assumed): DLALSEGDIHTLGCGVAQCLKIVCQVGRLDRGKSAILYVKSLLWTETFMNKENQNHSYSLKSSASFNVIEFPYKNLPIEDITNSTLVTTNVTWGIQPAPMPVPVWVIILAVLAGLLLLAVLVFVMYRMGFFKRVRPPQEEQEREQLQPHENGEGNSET
Sequence (P05106 27-788): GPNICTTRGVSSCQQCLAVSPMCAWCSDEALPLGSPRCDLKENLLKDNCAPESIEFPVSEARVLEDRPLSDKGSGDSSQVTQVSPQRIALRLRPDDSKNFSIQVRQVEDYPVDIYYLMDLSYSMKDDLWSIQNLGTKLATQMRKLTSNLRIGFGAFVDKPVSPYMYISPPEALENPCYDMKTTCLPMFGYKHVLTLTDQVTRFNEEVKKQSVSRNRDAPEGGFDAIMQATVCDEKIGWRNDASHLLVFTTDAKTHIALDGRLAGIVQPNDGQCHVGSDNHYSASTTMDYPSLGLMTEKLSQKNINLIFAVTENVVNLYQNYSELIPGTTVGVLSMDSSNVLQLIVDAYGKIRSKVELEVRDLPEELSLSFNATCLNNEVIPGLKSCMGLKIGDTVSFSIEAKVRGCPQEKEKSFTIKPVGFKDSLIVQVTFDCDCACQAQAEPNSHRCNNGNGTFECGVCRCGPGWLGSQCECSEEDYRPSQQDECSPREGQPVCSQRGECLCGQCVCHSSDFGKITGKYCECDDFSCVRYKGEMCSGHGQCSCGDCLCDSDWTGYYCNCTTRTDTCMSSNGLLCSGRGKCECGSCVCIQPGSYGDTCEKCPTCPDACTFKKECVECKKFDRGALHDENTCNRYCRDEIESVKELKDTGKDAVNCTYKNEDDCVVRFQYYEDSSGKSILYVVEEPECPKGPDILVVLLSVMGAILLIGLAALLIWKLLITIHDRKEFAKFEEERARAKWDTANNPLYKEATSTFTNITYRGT
assay notes: αvβ3-vitronectin assay
test conditions: ELISA plate coated with human αvβ3, biotinylated human vitronectin, room temperature; read-out: IC50 for inhibition of the αvβ3-vitronectin interaction
pIC50: −log10 of the molar value.
assay metric: pIC50

CNc1cccc(CCOc2ccc3c(CCC(=O)O)csc3c2)n1 | 7.52

[a] CNc1cccc(CCOc2ccc3c(CCC(=O)O)coc3c2)n1
[b] O=C(O)CCc1csc2cc(OCCc3ccc4c(n3)NCCC4)ccc12
Lookup: Could you kindly indicate whether a or b has the higher pIC50 value? Returns: label corresponding to the selected item.
Found: b
